Please go through the items and note down their protein stability index.
B1: MIA2 (parent)
chain: DMVSNIELPTRIHEEVYFEPSSSK

Variants of: B1
test name: protein stability index of a GFP-peptide fusion (GPS, HEK-293T) (PSI 1-6); higher = more stable;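 note: lentivirally expressed fusions sorted by FACS into six bins by GFP to DsRed ratio, PSI derived from sequencing read proportions per bin multiplied by bin number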
particulars: c terminus: a fixed tail appended
Give a plain numeric answer without units written out.

Problem: # protein stability index lookup, item "M2T"
Result: 5.12

Problem: # protein stability index lookup, item "E19F"
Result: 2.86

Problem: # protein stability index lookup, item "L8I"
Result: 4.04

Problem: # protein stability index lookup, item "R11P"
Result: 4.09

Problem: # protein stability index lookup, item "T10F"
Result: 3.86

Problem: # protein stability index lookup, item "V16G"
Result: 4.16

Problem: # protein stability index lookup, item "E15D"
Result: 4.45

Problem: # protein stability index lookup, item "V16R"
Result: 3.17

Problem: # protein stability index lookup, item "E19M"
Result: 3.31

Problem: # protein stability index lookup, item "K24C"
Result: 3.66

Problem: # protein stability index lookup, item "P20C"
Result: 3.42

Problem: # protein stability index lookup, item "I6Q"
Result: 4.19

Problem: # protein stability index lookup, item "F18I"
Result: 4.52

Problem: # protein stability index lookup, item "S23W"
Result: 3.08

Problem: # protein stability index lookup, item "P20R"
Result: 4.18

Problem: # protein stability index lookup, item "V16I"
Result: 3.87

Problem: # protein stability index lookup, item "S22A"
Result: 4.28

Problem: # protein stability index lookup, item "E14N"
Result: 3.82

Problem: # protein stability index lookup, item "S22G"
Result: 3.85

Problem: # protein stability index lookup, item "P20N"
Result: 4.12

Problem: # protein stability index lookup, item "E14T"
Result: 3.07

Problem: # protein stability index lookup, item "E7N"
Result: 2.85

Problem: # protein stability index lookup, item "K24V"
Result: 3.51

Problem: # protein stability index lookup, item "S4F"
Result: 2.35

Problem: # protein stability index lookup, item "N5E"
Result: 4.18

Problem: # protein stability index lookup, item "K24R"
Result: 3.85

Problem: # protein stability index lookup, item "M2L"
Result: 3.7

Problem: # protein stability index lookup, item "S23V"
Result: 3.82

Problem: # protein stability index lookup, item "N5P"
Result: 5.11

Problem: # protein stability index lookup, item "H13D"
Result: 3.59

Problem: # protein stability index lookup, item "S22N"
Result: 4.12

Problem: # protein stability index lookup, item "P9N"
Result: 4.06

Problem: # protein stability index lookup, item "E7A"
Result: 3.65

Problem: # protein stability index lookup, item "I6S"
Result: 4.07

Problem: # protein stability index lookup, item "V3P"
Result: 4.1

Problem: # protein stability index lookup, item "M2Y"
Result: 3.72

Problem: # protein stability index lookup, item "H13T"
Result: 3.02

Problem: # protein stability index lookup, item "L8A"
Result: 4.46

Problem: # protein stability index lookup, item "S21H"
Result: 3.97

Problem: # protein stability index lookup, item "S22L"
Result: 2.58

Problem: # protein stability index lookup, item "M2R"
Result: 4.18

Problem: # protein stability index lookup, item "D1T"
Result: 3.63

Problem: # protein stability index lookup, item "F18N"
Result: 4.68

Problem: # protein stability index lookup, item "S21E"
Result: 4.64

Problem: # protein stability index lookup, item "E14Y"
Result: 1.86

Problem: # protein stability index lookup, item "V3N"
Result: 3.86
